# Lookup of reported % Enz activity, HCoV-229E keyed by entry
Target: HCoV-229E 3CL protease (Human coronavirus 229E, UniProt P0C6U2)
Construct: 6xHIS-tag (N); TEV-protease cleavage site (ENLYFQG) (N); made in house; host or cells: Rosetta BL21 E. coli, pET14b
Sequence (P0C6U2 2966-3267): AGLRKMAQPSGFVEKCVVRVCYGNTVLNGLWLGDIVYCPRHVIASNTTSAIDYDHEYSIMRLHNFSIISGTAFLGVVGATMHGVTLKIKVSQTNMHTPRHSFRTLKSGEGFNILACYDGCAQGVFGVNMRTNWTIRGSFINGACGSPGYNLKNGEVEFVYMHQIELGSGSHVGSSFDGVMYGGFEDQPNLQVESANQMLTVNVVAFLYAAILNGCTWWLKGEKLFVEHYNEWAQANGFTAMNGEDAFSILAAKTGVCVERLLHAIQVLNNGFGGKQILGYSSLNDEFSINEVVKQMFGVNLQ
Experiment: Substrate cleavage by HCoV-229E 3CL protease
Type: biochemical
Details: Table 5: relative to the substrate's own protease = 100
Primed or numbered codes have the meaning given here. * marks the point of attachment. Dabcyl′ = CN(C)c1ccc(/N=N/c2ccc(C(=O)*)cc2)cc1; EDANS = O=S(=O)(O)c1cccc2c(NCCN*)cccc12
readout.name: % Enz activity, HCoV-229E

substance	result
Dabcyl-LEALFQGP[Asp-(EDANS) SQ [Amide] ({Dabcyl′}-LEALFQGPD(EDANS)SQ-NH2; SMILES CC(C)C[C@H](NC(=O)c1ccc(/N=N/c2ccc(N(C)C)cc2)cc1)C(=O)N[C@@H](CCC(=O)O)C(=O)N[C@@H](C)C(=O)N[C@@H](CC(C)C)C(=O)N[C@@H](Cc1ccccc1)C(=O)N[C@@H](CCC(N)=O)C(=O)NCC(=O)N1CCC[C@H]1C(=O)N[C@@H](CC(=O)NCCNc1cccc2c(S(=O)(=O)O)cccc12)C(=O)N[C@@H](CO)C(=O)N[C@@H](CCC(N)=O)C(N)=O) [Biosyn#7]	0%
Dabcyl-YGSTLQAGLRK-EDANS ({Dabcyl′}-YGSTLQAGLRK-{EDANS}; SMILES CC(C)C[C@H](NC(=O)CNC(=O)[C@H](C)NC(=O)[C@H](CCC(N)=O)NC(=O)[C@H](CC(C)C)NC(=O)[C@@H](NC(=O)[C@H](CO)NC(=O)CNC(=O)[C@H](Cc1ccc(O)cc1)NC(=O)c1ccc(/N=N/c2ccc(N(C)C)cc2)cc1)[C@@H](C)O)C(=O)N[C@@H](CCCNC(=N)N)C(=O)N[C@@H](CCCCN)C(=O)NCCNc1cccc2c(S(=O)(=O)O)cccc12) [Biosyn#6]	100%
Dabcyl-TSAVLQSGFRK-EDANS [Biosyn #1]	95%
Dabcyl-KTSAVLQSGFRKME-EDANS [Commercial substrate, reference compound]	26%
